Experiment description: NCI Yeast Anticancer Drug Screen. Data for the sgs1 mgt1 strain (AID 161);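 further: 0% = growth of cultures given vehicle only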
Condition notes: S. cerevisiae sgs1 mgt1 strain, at 50.0 µM, active compounds read high
This is part of a sample that, as a whole, favours compounds with a hit. Of some 79,000 tested, about 15% had one in any assay.
Observation type: growth inhibition (%)
// return numeric value only (unit: %, not printed)

Some molecules with known growth inhibition results, for comparison:
INSERT INTO results (molecule, unit_annotation, numeric_result) VALUES
  ('CCCC1OCCO1', '%', -6.85),
  ('N#CC/C(C#N)=C/OC(=O)c1ccc(Cl)cc1', '%', -13.3),
  ('CC1=NNC(=O)C1(C)C', '%', -20.6),
  ('CCOC(=O)c1c[nH]c2cc3c(cc2c1=O)CCS3', '%', -1.45),
  ('Cc1ccc(O)c(C(C)C)c1', '%', -34.4),
  ('C#CC(CC(C)CC(C)(C)C)N(C)C (stereo not given)', '%', 16.2);

For `COc1ccccc1NC(=O)CC(C)=O` the molecule record lists growth inhibition as 7.8

For `CO/[N+]([O-])=C\C(=O)N/C=C/C(=O)O` the molecule record lists growth inhibition as 7.3

For `CCOC(=O)COc1ccc(Cc2ccc3c(c2)OCO3)cc1C` the molecule record lists growth inhibition as -2.45

For CCCCCCCCCCCCCCCCNC(=O)C(C)O (stereo not given) the molecule record lists growth inhibition as 17.2
